test-system: EntF, enterobactin nonribosomal peptide synthetase (E. coli, UniProt P11454 1-1293)
Sequence (P11454 whole entry): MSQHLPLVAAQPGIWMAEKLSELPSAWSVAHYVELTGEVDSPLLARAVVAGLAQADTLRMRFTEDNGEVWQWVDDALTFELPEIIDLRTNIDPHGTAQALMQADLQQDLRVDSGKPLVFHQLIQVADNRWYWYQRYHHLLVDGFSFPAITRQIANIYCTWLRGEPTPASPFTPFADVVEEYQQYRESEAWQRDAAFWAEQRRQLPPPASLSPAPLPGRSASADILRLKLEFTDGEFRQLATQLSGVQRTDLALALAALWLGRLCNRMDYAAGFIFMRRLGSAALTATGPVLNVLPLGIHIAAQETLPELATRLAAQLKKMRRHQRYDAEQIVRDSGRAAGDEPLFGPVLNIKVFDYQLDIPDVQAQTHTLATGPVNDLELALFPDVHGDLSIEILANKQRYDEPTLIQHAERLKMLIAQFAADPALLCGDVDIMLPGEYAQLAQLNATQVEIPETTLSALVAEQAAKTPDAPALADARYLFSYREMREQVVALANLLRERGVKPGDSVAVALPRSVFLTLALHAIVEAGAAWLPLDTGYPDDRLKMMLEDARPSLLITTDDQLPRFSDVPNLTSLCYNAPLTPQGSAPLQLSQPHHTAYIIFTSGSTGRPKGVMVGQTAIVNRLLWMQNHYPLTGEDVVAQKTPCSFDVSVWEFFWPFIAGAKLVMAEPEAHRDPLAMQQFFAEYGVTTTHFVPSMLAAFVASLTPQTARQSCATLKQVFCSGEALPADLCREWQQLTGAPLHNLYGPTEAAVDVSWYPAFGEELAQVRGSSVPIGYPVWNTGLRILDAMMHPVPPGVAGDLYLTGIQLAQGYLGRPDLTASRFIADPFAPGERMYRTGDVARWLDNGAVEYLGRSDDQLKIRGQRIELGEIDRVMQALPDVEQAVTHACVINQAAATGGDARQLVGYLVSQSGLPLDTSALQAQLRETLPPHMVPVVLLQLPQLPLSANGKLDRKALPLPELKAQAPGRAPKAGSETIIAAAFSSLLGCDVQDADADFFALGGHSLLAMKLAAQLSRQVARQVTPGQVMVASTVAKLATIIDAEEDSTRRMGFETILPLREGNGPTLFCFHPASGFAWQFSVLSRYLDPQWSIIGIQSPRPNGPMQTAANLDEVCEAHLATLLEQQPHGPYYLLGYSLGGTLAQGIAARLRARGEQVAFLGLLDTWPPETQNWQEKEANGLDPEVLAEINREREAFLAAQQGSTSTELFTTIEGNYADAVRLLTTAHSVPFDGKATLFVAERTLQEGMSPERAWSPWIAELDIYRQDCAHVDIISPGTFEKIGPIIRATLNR
measurement-protocol: ATP/PPi exchange rate against MLP concentration
quantity-kind: pKd
Give bare numbers, as −log10 of the molar value.

Query block: Given the binder MbtH, MbtH-like protein of mycobactin biosynthesis (purified, tag cleaved) (natural protein) MSTNPFDDDNGAFFVLVNDEDQHSLWPVFADIPAGWRVVHGEASRAACLDYVEKNWTDLRPKSLRDAMVED , what is its reported pKd?
Result block: 7.26
